Reference source: patent US7906156B2

# Tested on: human hepatic myofibroblasts
# Assay text: cells
# Type: cell-based
# Recorded conditions: 20 ng/ml PDGF-BB, 30 hrs; read-out: half maximal inhibition (IC50) of DNA synthesis
Readout name: IC50 (nM)

[
  {
    "Cpd smiles": "CCCn1c(C)c(C(=O)c2cccc3ccccc23)c2ccccc21",
    "Readout name": "IC50",
    "Numeric value": 150
  }
]

====

# System: human hepatic myofibroblasts
# Assay text: Cell viability (MTS assay) / cytotoxicity of serum-deprived hepatic myofibroblasts
# Format: cell-based
# Recorded conditions: serum-deprived cells
Readout name: cytotoxic / apoptotic effect on hepatic myofibroblasts

[
  {
    "Compound": "CCCCCCC(C)(C)c1cc(O)c2c(c1)OC(C)(C)[C@@H]1CC=C(CO)C[C@@H]21 [HU-210]",
    "Result": "cytotoxic"
  },
  {
    "Compound": "CCCCCCC(C)(C)c1ccc([C@@H]2C[C@H](O)CC[C@H]2CCCO)c(O)c1 [CP 55940]",
    "Result": "cytotoxic"
  },
  {
    "Compound": "CCCCC/C=C\\C/C=C\\C/C=C\\C/C=C\\CCCC(=O)NCCO [anandamide]",
    "Result": "cytotoxic"
  }
]
